- Protocol details: Displacement of [3H]naloxone from opioid receptor in Sprague-Dawley rat striatal membrane by scintillation spectrophotometry
- Design: species or system Striatum
Measured property: Ki (µM)

A: CC(C)=CCC/C(C)=C/Cc1c(O)cc(O)cc1/C=C/c1ccc(O)c(O)c1CC=C(C)C
B: CC(C)=CCC/C(C)=C/Cc1c(O)cc(/C=C/c2ccc(O)c(O)c2)cc1O
C: CC(C)=CCCC1(C)C=Cc2c(O)cc(/C=C/c3ccc(O)c(O)c3)cc2O1 (centres undefined)
Arrange the above in rising order of Ki. Your reply should list the labels following the order given in the request.
A, B, C

Values compiled from ChEMBL document CHEMBL1146455.
